// data source = ChEMBL document CHEMBL1156829

assay: NOVARTIS: Cytotoxicity against human hepatocellular carcinoma cell line (Huh7); format: toxicity, cell-based, Huh-7; settings: Huh7 cells (hepatocellular carcinoma cell line)
reportedMetric: CC50

Worked examples, 3 compounds total:
compound | CC50
CCCCCCN(C(=O)c1cccc(OC)c1)C(CC)c1nc2ccccc2c(=O)n1-c1ccc(Cl)cc1C (stereo not given) | > 10 µM
Cc1ccc(-c2nc3cc(NC(=O)c4ccc(Cl)cc4Cl)ccc3o2)cc1 | > 10 µM
C=CCNC(=S)N1CCc2c([nH]c3ccccc23)C1C(F)(F)F (stereo not given) | 70.7 µM

Quick one: CC50 for CCN(CC)c1ccc(N=Cc2ccc(Sc3nc4ccccc4s3)o2)cc1 ?
10.8 µM

Same for CC1CCCCN1CCCNc1ncc(C(=O)NCCc2ccccc2)c(NCC2CCCO2)n1 (stereo not given)
> 10 µM

One more compound: CC1=C(C(=O)OC(C)C)C(c2ccc([N+](=O)[O-])cc2)C2=C(CCCC2=O)N1 (stereo not given)
> 100 µM
